studySystem: Cytochrome P450 2D6 (Homo sapiens) (UniProt P10635)
Sequence (P10635 whole entry, looked up): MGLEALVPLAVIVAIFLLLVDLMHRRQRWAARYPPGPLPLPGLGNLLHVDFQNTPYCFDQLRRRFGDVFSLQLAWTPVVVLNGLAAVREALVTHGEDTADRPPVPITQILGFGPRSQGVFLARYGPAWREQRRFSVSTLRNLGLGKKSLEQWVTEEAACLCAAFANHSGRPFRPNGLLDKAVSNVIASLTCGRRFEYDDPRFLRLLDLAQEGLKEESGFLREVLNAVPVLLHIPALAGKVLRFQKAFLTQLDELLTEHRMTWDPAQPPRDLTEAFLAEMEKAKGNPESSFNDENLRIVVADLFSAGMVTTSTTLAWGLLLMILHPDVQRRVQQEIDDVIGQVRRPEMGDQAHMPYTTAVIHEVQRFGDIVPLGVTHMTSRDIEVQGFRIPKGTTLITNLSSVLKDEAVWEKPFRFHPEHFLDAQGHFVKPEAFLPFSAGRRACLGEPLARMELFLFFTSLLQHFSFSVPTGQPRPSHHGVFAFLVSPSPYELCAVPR
assayNotes: Cytochrome P450 family 2 subfamily D member 6 (CYP2D6) small molecule antagonists: luciferase biochemical (cell-free) qHTS assay (AID 1645840); note: nearly all actives have a fitted effect of over 55% in size; note: potency is the fitted concentration of half-maximal effect
experimentalParameters: P450-Glo CYP2D6 enzyme, luciferin luminescence, 1 h; series mostly up to 57.4 µM
Results filed as inconclusive are left out. The source made the active and inactive calls. Calls come from the whole dose curve; as a rule, active = well fitted inhibition curve with a large enough effect in the repeat runs; inconclusive = weak or mixed curves; inactive = flat fitted curve, though single readings scatter.
readoutName: Potency

Observe how each entry below is paired with its result.
molecule: CC[C@@H]1C(=O)N(C)c2cnc(Nc3ccc(C(=O)NC4CCC(N5CCN(CC6CC6)CC5)CC4)cc3OC)nc2N1C(C)C (some centres undefined)
Potency: inactive

molecule: CS(=O)(=O)c1ccc(-c2cnc(N)c(C(=O)Nc3ccccc3)n2)cc1
Potency: inactive

molecule: Clc1cccc(-n2nnnc2NCc2ccccc2Oc2ccccn2)c1Cl
Potency: 5.35 µM (active)

molecule: Nc1ccccc1NC(=O)c1ccc(CNc2nccc(-c3cccnc3)n2)cc1
Potency: 4.77 µM (active)

molecule: Cn1cncc1[C@@](N)(c1ccc(Cl)cc1)c1ccc2c(c1)c(-c1cccc(Cl)c1)cc(=O)n2C
Potency: 16.9 µM (active)

Input line: Fill in Potency for record "O=C(Nc1nc2cccc(-c3ccc(CN4CCS(=O)(=O)CC4)cc3)n2n1)C1CC1"
Output line: inactive

Input line: Specify measured Potency for CCOc1ccccc1OCCNC(C)Cc1ccc(OC)c(S(N)(=O)=O)c1 (centres undefined) .
Output line: 10.7 µM (active)

Input line: Respond only with Potency recorded for "C=CC(=O)Nc1cccc(Oc2nc(Nc3ccc(N4CCN(C)CC4)cc3)ncc2Cl)c1"
Output line: 19 µM (active)

Input line: Indicate its recorded Potency; the molecule in question is "Cn1cc(-c2[nH]c3cc(NC(=O)[C@H](N)C4CCCCC4)cc4c3c2C=NNC4=O)cn1"
Output line: inactive

---

assayNotes: qHTS drug screen for cell cycle checkpoint inhibitors in PARPi-resistant BRCA-mutant ovarian cancer cell lines. (AID 1963452)
experimentalParameters: PEO1/OlaR viability, CellTiter-Glo luminescence, 96 h; stronger effect = lower value
Measured Z-AUC accompanies every entry in the list below.
Returns: the value as a bare number; no unit string appended.

# annotated cases, reported Z-AUC shown
compound: CCCn1c(=O)c2[nH]c(-c3cnn(Cc4cccc(C(F)(F)F)c4)c3)nc2n(CC)c1=O
Z-AUC: 1.35

compound: COC(=O)Nc1nc2ccc(C(=O)c3ccc(F)cc3)cc2[nH]1
Z-AUC: -0.379

compound: COc1cc2c(NC3CCN(C(C)C)CC3)nc(C3CCCCC3)nc2cc1OCCCN1CCCC1
Z-AUC: 0.841

compound: O=C(CCCCCCC(=O)Nc1ccc([C@H]2O[C@@H](CSc3nc(-c4ccccc4)c(-c4ccccc4)o3)C[C@@H](c3ccc(CO)cc3)O2)cc1)NO
Z-AUC: 0.612

compound: COc1ccc(CC2SC(=O)NC2=O)cc1C(=O)NCc1ccc(C(F)(F)F)cc1 (centres undefined)
Z-AUC: 1.34

Input line: Assign Z-AUC to the following record: "CS(=O)(=O)N1CCN(Cc2cc3nc(-c4cccc5[nH]ncc45)nc(N4CCOCC4)c3s2)CC1"
Output line: 0.0585

Input line: Please report Z-AUC for the following compound: "CC(C)(C)c1cnc(CSc2cnc(NC(=O)C3CCNCC3)s2)o1"
Output line: -0.758

Input line: Please supply the value of reported Z-AUC for the item "CN(C)CCCN=c1c2ccccc2n(C)c2[nH]c(=O)n(C)c(=O)c12"
Output line: 0.193
